assayed.target: T1, recombinant mouse αvβ6 integrin extracellular domains (mouse, UniProt P43406 1-988; Q9Z0T9 1-706, Biotinylated on the Avitag (tag not in the letters); interchain disulfide between the coiled-coils (not in the letters).)
T1 construct: Soluble heterodimer co-expressed in Expi293 cells; also called mαvβ6
T1 sequence (P43406 31-988 limits assumed, form in doubt, chain 1 of 2): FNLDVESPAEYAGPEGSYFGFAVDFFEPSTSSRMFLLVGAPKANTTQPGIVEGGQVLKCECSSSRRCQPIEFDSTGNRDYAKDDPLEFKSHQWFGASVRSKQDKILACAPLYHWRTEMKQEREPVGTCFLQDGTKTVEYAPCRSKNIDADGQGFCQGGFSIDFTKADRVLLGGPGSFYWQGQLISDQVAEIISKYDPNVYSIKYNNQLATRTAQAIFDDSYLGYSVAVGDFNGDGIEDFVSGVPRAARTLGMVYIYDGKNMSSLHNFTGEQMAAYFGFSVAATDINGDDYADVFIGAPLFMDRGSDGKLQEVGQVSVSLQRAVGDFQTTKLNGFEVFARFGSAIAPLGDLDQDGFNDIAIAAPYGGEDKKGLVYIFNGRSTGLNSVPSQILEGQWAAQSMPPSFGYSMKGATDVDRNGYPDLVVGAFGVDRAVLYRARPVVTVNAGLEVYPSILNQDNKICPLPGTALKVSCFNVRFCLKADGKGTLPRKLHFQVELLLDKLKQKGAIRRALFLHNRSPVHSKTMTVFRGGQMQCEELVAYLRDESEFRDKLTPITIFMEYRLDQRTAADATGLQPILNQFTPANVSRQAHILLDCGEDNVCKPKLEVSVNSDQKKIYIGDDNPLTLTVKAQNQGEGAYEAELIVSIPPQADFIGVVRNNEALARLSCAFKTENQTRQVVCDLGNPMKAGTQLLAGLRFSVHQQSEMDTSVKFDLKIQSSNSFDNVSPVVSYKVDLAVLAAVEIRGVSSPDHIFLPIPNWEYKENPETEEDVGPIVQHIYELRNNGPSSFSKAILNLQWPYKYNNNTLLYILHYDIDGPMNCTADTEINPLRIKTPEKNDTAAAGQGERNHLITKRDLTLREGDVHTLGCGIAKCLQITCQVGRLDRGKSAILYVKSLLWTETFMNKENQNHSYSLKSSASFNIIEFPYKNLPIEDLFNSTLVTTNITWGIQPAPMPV
T1 sequence (Q9Z0T9 22-706 limits assumed, form in doubt, chain 2 of 2): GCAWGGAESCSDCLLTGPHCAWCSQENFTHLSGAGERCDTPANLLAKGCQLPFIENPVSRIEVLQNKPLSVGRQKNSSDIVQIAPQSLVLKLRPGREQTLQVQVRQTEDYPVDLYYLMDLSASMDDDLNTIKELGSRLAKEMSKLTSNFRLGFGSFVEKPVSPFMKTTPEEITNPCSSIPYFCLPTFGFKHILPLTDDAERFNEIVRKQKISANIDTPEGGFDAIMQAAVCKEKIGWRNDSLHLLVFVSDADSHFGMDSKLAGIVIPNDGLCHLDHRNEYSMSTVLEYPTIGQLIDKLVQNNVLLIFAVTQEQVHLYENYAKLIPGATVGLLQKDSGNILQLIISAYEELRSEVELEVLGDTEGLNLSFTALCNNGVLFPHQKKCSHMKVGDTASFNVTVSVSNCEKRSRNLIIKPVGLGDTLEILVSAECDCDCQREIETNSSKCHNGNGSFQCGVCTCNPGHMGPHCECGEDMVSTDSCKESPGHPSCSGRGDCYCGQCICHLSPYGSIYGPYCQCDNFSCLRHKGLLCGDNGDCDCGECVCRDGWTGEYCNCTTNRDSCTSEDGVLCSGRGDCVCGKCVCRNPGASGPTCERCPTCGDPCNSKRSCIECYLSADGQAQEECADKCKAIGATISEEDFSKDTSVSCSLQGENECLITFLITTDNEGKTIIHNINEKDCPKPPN
assay.details: ForteBio Octet Red (BLI)
This listing pairs binders with measured Kd.
Note: unit nM is implicit; provide only the numeric part.

Param item = Ab-29 (antibody, V domains shown) VH: ELQLQESGPGLVKPSETLSLTCTVSGGSISSNSYYWGWIRQPPGKGLEWIGSIYYSGSTYYNPSLKSRVTISVDTSKNQFSLKLSSVTAADTAVYYCARVRRVAGRGDSYYYYYGMDVWGQGTTVTVSS VL: DIQMTQSPSSVSASVGDRVTITCRASQGISRWLAWYQQKPGKAPKLLIYAASSLQSGVPSRFSGSGSGTDFTLTISSLQPEDFATYYCQQAISHPWTFGGGTKVEIK ; retrieve measured Kd. 4.11

Param item = Ab-30 (antibody, V domains shown) VH: EVQLQESGPGLVKPSETLSLTCAVSGYSISSGYYWGWIRQPPGKGLEWIGSIYHSGNTYYNPSLKSRVTISVDTSKNQFSLKLSSVTAADTAVYYCARVPRYSRGDAYYYYGMDVWGQGTTVTVSS VL: DIQMTQSPSTLSASVGDRVTITCRASQSISSWLAWYQQKPGKAPKLLIYKASSLESGVPSRFSGSGSGTEFTLTISSLQPDDFATYYCQQVKIYPPYTFGGGTKVEIK ; retrieve measured Kd. 3.03

Param item = Ab-33 (antibody, V domains shown) VH: EVQLVQSGAEVKKPGSSVKVSCKASGGTFSNYAISWVRQAPGQGLEWMGGIIPIFGTANYAQKFQGRVTITADESTSTAYMELSSLRSEDTAVYYCARAPRSARGDMYYYYYGMDVWGQGTTVTVSS VL: DIQMTQSPSTLSASVGDRVTITCRASQSIGSWLAWYQQKPGKAPKLLIYKASSLESGVPSRFSGSGSGTEFTLTISSLQPDDFATYYCQQYGRYPWTFGGGTKVEIK ; retrieve measured Kd. 2.45

Param item = Ab-32 (antibody, V domains shown) VH: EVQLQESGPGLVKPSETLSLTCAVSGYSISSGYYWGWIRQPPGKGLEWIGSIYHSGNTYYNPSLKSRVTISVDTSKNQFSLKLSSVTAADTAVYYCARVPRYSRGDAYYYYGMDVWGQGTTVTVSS VL: EIVLTQSPGTLSLSPGERATLSCRASQSVRSSYLAWYQQKPGQAPRLLIYGASSRATGIPDRFSGSGSGTDFTLTISRLEPEDFAVYYCQQAGLVFTFGGGTKVEIK ; retrieve measured Kd. 2.59

Param item = Ab-31 (antibody, V domains shown) VH: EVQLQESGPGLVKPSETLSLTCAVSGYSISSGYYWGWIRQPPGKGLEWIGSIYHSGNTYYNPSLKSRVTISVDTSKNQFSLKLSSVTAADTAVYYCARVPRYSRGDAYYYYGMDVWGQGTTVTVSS VL: DIQMTQSPSTLSASVGDRVTITCRASQSIGSWLAWYQQKPGKAPKLLIYKASSLESGVPSRFSGSGSGTEFTLTISSLQPDDFATYYCQQSGPYPWTFGGGTKVEIK ; retrieve measured Kd. 2.9
